Each recorded value in this set is attributed to paper PMC12903857.

# tested system: T1, 14-3-3σ (UniProt P31947 1-248)
# T1 chain: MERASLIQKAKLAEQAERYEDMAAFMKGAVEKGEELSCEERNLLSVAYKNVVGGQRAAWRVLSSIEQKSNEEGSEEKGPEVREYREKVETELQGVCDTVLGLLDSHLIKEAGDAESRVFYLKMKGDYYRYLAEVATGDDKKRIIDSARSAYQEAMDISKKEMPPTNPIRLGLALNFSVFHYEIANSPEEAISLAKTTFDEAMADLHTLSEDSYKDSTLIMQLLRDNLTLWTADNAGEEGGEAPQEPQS
# assay overview: FP; 100 uM compound 22
No end group written: not given here.
assay readout: pKd
One number for each entry, as −log10 of the molar value.

Query string: Item LQRIRSTSTPNVHMV (also: phosphoserine at S214, site in chain not given here) [15-mer A-RAF peptide] has what recorded pKd?
Result string: 8.05
